Reference source: patent US8557816B2

- targetSystem: AuroraA-TPX2 (Homo sapiens)
- Construct: 20 μL of AuroraA-TPX2 KD GST for a final volume of about 41 μL; GST
- testDetails: AuroraA-TPX2 Homogeneous Time Resolved Fluorescent (HTRF) kinase assay
- Format: biochemical
- conditionDescription: average; read-out: AurA_IC50_IP (uM Avg)
measuredMetric: IC50 (µM)

FC1(F)Oc2ccc(-c3nnc(Nc4ccc(Oc5ccnc6ccsc56)cc4)c4ccccc34)cc2O1 ... 0.266

[a] Clc1ccc(-c2nnc(Nc3ccc(Sc4ccnc5[nH]ccc45)cc3)c3ccccc23)cc1
[b] COc1cnc2c(Oc3ccc(Nc4nnc(N5CCN6CCCC6C5)c5ccccc45)cc3)ccnc2c1 (centres unmarked)
Problem: Form field 'greater IC50' accepts a or b ; which applies? API: response body contains the label of the selected item.
Solution: a

* * *

- targetSystem: AuroraB (Homo sapiens, UniProt Q96GD4)
- Construct: 20 μL of AuroraB FL H is for a final volume of 41 μL; His
- Sequence (Q96GD4 whole entry): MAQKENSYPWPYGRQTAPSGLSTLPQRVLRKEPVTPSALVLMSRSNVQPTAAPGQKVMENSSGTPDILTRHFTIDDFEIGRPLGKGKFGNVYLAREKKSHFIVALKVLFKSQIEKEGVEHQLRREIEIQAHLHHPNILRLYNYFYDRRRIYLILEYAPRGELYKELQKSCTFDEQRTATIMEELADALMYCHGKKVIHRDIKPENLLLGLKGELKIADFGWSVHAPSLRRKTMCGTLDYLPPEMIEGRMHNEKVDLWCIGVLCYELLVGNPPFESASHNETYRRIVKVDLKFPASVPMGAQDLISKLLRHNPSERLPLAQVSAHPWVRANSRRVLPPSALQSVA
- testDetails: AuroraB Homogeneous Time Resolved Fluorescent (HTRF) kinase assay
- Format: biochemical
- conditionDescription: average; read-out: AurB_IC50_IP (uM Avg)
measuredMetric: IC50 (µM)

Consider the reported IC50 for these molecules:
COc1ccc2c(Oc3ccc(Nc4nnc(-c5ccc(C(F)(F)F)cc5)c5ccccc45)cc3)c(F)cnc2c1 ... 1
COc1cccc(-c2nnc(Nc3ccc(Oc4ccnc5ccccc45)c(F)c3)c3ccccc23)n1 ... 0.002
COc1cnc2c(Oc3ccc(Nc4nnc(-c5cc(F)ccc5OC)c5ccccc45)cc3)ccnc2c1 ... 0.041
COc1cnc2c(Oc3ccc(Nc4nnc(-c5ccc(OC)nc5)c5ccccc45)cc3)ccnc2c1 ... 0.005

[1] COc1cc2nccc(Oc3ccc(Nc4nnc(-c5cccc(C)n5)c5ccccc45)cc3)c2cn1
[2] COc1cnc2c(Oc3ccc(Nc4nnc(-c5ccc(Cl)s5)c5ccccc45)cc3)ccnc2c1
[3] Cc1ccc(-c2nnc(Nc3ccc(Oc4ccnc5ccsc45)cc3)c3ccccc23)cc1
Problem: // smallest IC50 at index 0, largest at the end Give the order by naming the labels one after another as requested.
Solution: 1, 3, 2

* * *

- targetSystem: AuroraA-TPX2 (Homo sapiens, UniProt O14965)
- Construct: 20 μL of AuroraA-TPX2 KD GST for a final volume of about 41 μL; GST
- Sequence (O14965 133-383 limits assumed): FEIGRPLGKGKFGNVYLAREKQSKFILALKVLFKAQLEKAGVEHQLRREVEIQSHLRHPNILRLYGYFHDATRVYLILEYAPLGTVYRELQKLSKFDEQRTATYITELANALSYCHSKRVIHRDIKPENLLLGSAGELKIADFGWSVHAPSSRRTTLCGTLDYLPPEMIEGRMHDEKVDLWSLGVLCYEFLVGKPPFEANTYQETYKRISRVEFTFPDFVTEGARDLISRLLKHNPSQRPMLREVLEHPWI
- Sequence (Q9ULW0 1-43 partner limits assumed): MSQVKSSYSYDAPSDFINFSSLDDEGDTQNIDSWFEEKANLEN
- testDetails: AuroraA-TPX2 Homogeneous Time Resolved Fluorescent (HTRF) kinase assay
- Type: biochemical
- conditionDescription: average; read-out: AurA_IC50_IP (uM Avg)
measuredMetric: IC50 (µM)

COc1ccc2c(Sc3ccc(Nc4nnc(-c5ccccc5)c5ccccc45)cc3)ccnc2c1 ... 0.192
COc1cnc2c(Oc3cnc(Nc4nnc(-c5ccccc5)c5ccccc45)nc3)ccnc2c1 ... 0.16
